system: Trichophyton mentagrophytes; experiment: Broth microdilution MIC (CLSI M38-A2, modified); format: cell-based; conditions: Tm2, clinical isolate; 35°C, 7 days
Consider the following compounds; for each one, report its MIC.
Numbers only, in µg/mL.

Count: 4. Required value per item: MIC.
1. CCOC(=O)c1ccc(O)c(O)c1 [Protocatechuate ethyl]
2. CCCCCCCCCOC(=O)c1ccc(O)c(O)c1 [Protocatechuate nonyl, nonyl protocatechuate]
3. CCCCCCOC(=O)c1ccc(O)c(O)c1 [Protocatechuate hexyl, hexyl protocatechuate]
4. CCCCCCCCCCOC(=O)c1ccc(O)c(O)c1 [Protocatechuate decyl]

Result:
1: 31.2; 2: 3.9; 3: 3.9; 4: 3.9

Ask: Would you mind telling me what MIC value was observed for CCCCCCCCCCCCOC(=O)c1ccc(O)c(O)c1 [Protocatechuate dodecyl] ?
Result: 62.5
